# TARGET: human serum albumin (Homo sapiens, UniProt P02768)
# METHOD_NOTES: Surface plasmon resonance (BIAcore 3000) of MycHis tagged 2D3-Expedite fusions, Example 10
# Assay type: binding
# CONDITION_DESCRIPTION: Human serum albumin; dissociation rate
READOUT_KIND: dissociation rate constant (koff) (s⁻¹)
Kindly provide the numeric value in s⁻¹ only, without the unit symbol.

Task: Supply dissociation rate constant (koff) value. Item: 2D3-9GS-59C2-MycHis: SEQ ID NO: 160 (protein, Myc-His tag) EVQLVESGGSLVQPGGSLRLSCAASGFTFDDYAMSWVRQVPGKGLEWVSSINWSGTHTDYADSVKGRFTISRNNANNTLYLQMNSLKSEDTAVYYCAKNWRDAGTTWFEKSGSAGQGTQVTVSSGGGGSGGGSAAARDWDFDVFGGGTPVGGAAAEQKLISEEDLNGAAHHHHHH
Output: 0.00179

Task: Return reported dissociation rate constant (koff). Input molecule: 2D3-9GS-56E4-MycHis: SEQ ID NO: 158 (protein, Myc-His tag) EVQLVESGGSLVQPGGSLRLSCAASGFTFDDYAMSWVRQVPGKGLEWVSSINWSGTHTDYADSVKGRFTISRNNANNTLYLQMNSLKSEDTAVYYCAKNWRDAGTTWFEKSGSAGQGTQVTVSSGGGGSGGGSAAARYWDYDVFGGGTPVGGAAAEQKLISEEDLNGAAHHHHHH
Output: 0.00497

Task: Provide one value: measured dissociation rate constant (koff) of 2D3-9GS-59H12-MycHis: SEQ ID NO: 161 (protein, Myc-His tag) EVQLVESGGSLVQPGGSLRLSCAASGFTFDDYAMSWVRQVPGKGLEWVSSINWSGTHTDYADSVKGRFTISRNNANNTLYLQMNSLKSEDTAVYYCAKNWRDAGTTWFEKSGSAGQGTQVTVSSGGGGSGGGSAAARSWDFDVFGGGTPVGGAAAEQKLISEEDLNGAAHHHHHH
Output: 0.00304

Here is another molecule to look at.
Task: Complete the entry with dissociation rate constant (koff) for 2D3-9GS-59F2-MycHis: SEQ ID NO: 159 (protein, Myc-His tag) EVQLVESGGSLVQPGGSLRLSCAASGFTFDDYAMSWVRQVPGKGLEWVSSINWSGTHTDYADSVKGRFTISRNNANNTLYLQMNSLKSEDTAVYYCAKNWRDAGTTWFEKSGSAGQGTQVTVSSGGGGSGGGSAAARYWDFDVFGGGTPVGGAAAEQKLISEEDLNGAAHHHHHH
Output: 0.00351
